// provenance: ChEMBL document CHEMBL1136766

molecular target: Cannabinoid receptor 1 (Rattus norvegicus)
Sequence (P20272 whole entry): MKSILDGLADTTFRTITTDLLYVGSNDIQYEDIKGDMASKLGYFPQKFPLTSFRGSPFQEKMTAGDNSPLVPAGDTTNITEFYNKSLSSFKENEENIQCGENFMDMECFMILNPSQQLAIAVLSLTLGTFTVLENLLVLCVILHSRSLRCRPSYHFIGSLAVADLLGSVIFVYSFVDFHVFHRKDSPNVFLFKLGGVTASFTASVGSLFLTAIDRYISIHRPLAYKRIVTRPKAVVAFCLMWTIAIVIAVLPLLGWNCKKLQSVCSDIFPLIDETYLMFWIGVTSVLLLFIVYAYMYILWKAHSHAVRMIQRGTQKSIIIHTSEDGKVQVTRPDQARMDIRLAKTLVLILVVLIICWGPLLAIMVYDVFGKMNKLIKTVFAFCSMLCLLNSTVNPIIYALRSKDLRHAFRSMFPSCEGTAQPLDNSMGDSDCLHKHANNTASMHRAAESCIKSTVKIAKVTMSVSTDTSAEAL
pKi: −log10 of the molar value.
Below is a list of entries, each paired with its recorded pKi value.

[
  {
    "molecule": "CCCCC/C=C\\C/C=C\\C/C=C\\C/C=C\\CCCC(=O)NCc1ccco1",
    "pKi": "< 5.30"
  },
  {
    "molecule": "CCCCC/C=C\\C/C=C\\C/C=C\\C/C=C\\CCCC(=O)OCc1ccco1",
    "pKi": "< 5.30"
  },
  {
    "molecule": "CCCCC/C=C\\C/C=C\\C/C=C\\C/C=C\\CCCC(=O)NCC1CCCO1 (stereo not given)",
    "pKi": "< 5.30"
  },
  {
    "molecule": "CCCCC/C=C\\C/C=C\\C/C=C\\C/C=C\\CCCC(=O)NCCc1ccsc1",
    "pKi": "< 6.00"
  },
  {
    "molecule": "CCCCC/C=C\\C/C=C\\C/C=C\\C/C=C\\CCCC(=O)N(C)Cc1ccoc1",
    "pKi": "< 6.00"
  },
  {
    "molecule": "CCCCC/C=C\\C/C=C\\C/C=C\\C/C=C\\CCCC(=O)O[C@H](C)c1ccco1",
    "pKi": "< 6.00"
  },
  {
    "molecule": "CCCCC/C=C\\C/C=C\\C/C=C\\C/C=C\\CCCC(=O)OCCc1ccsc1",
    "pKi": "< 6.00"
  },
  {
    "molecule": "CCCCC/C=C\\C/C=C\\C/C=C\\C/C=C\\CCCC(=O)OCC1CCOC1 (stereo not given)",
    "pKi": "< 5.30"
  },
  {
    "molecule": "CCCCC/C=C\\C/C=C\\C/C=C\\C/C=C\\CCCC(=O)NC(C)Cc1ccsc1 (stereo not given)",
    "pKi": "< 6.00"
  },
  {
    "molecule": "CCCCC/C=C\\C/C=C\\C/C=C\\C/C=C\\CCCC(=O)OCc1ccsc1",
    "pKi": "< 5.30"
  },
  {
    "molecule": "CCCCC/C=C\\C/C=C\\C/C=C\\C/C=C\\CCCC(=O)NCCc1ccoc1",
    "pKi": "< 6.00"
  },
  {
    "molecule": "CCCCC/C=C\\C/C=C\\C/C=C\\C/C=C\\CCCC(=O)O[C@@H](C)c1ccco1",
    "pKi": "< 6.00"
  },
  {
    "molecule": "CCCCC/C=C\\C/C=C\\C/C=C\\C/C=C\\CCCC(=O)OCC1CCCO1 (stereo not given)",
    "pKi": "< 5.30"
  },
  {
    "molecule": "CCCCC/C=C\\C/C=C\\C/C=C\\C/C=C\\CCCC(=O)NC(C)Cc1cccs1 (stereo not given)",
    "pKi": "< 6.00"
  },
  {
    "molecule": "CCCCC/C=C\\C/C=C\\C/C=C\\C/C=C\\CCCC(=O)OCc1ccoc1",
    "pKi": "< 5.30"
  }
]
